Settings: in PEG-400, 288.15 K

>  <MOLECULE_SMILES>
C=C1CCN([C@H](C)[C@](O)(Cn2cncn2)c2ccc(F)cc2F)CC1

>  <solubility (mole fraction)>
0.171

$$$$

* * *

Conditions: in DMF, 308.15 K

>  <MOLECULE_SMILES>
C=C1CCN([C@H](C)[C@](O)(Cn2cncn2)c2ccc(F)cc2F)CC1

>  <solubility (mole fraction)>
0.353

$$$$

* * *

Details: in acetonitrile, 308.15 K
RESULT_TYPE: solubility (mole fraction)

>  <MOLECULE_SMILES>
C=C1CCN([C@H](C)[C@](O)(Cn2cncn2)c2ccc(F)cc2F)CC1

>  <RESULT>
0.204

$$$$
